- Tested on: SF-268 CNS
- PROCEDURE DETAILS: NCI tumour cell line growth inhibition, 48 h
RESULT TYPE: TGI

- O=C(NN1C(=O)CSC12CCCCC2)c1[nH]c2ccc(Br)cc2c1-c1ccccc1: 67.1 µM
- CCN1C(=O)c2cc(OC)c(OC)cc2C(=O)C12OC(=O)c1cc3c(cc12)OCO3 (stereo unspecified): > 100 µM
- O=C1C=CC2(C=C1)O[C@H](Cc1ccccc1)[C@@H](Cc1ccccc1)O2: 2.48 µM
- CN(C)CCCn1c(=O)c2ccccc2c2ccccc21: 41.4 µM
- CCn1c2ccccc2c2ccc3c(c21)C(=O)C=CC3=O: 40 µM
- C=CC[C@@H](N)C(=O)N(C)[C@@H](C)[C@@H](O)c1ccccc1: > 100 µM
- NNC(=O)CS(=O)(=O)Nc1ncccn1: > 100 µM
- Cc1ccccc1-n1c(=O)c2ncn(C3CCCO3)c2n(-c2ccccc2C)c1=S (stereo unspecified): > 100 µM
- O=[N+]([O-])c1cccc2nnccc12: > 100 µM
- C#C[C@]1(O)CCCC2=CC(=O)CC[C@@]21C: > 100 µM
- COc1cc(C2SCC(=O)N2c2cccc(Cl)c2)cc(OC)c1OC (stereo unspecified): > 100 µM

----------
- Tested on: ACHN renal
- PROCEDURE DETAILS: NCI tumour cell line growth inhibition, 48 h
Measured TGI, listed per entry for reference.
RESULT TYPE: TGI (µM)

- COC1/C=C/C(C)C(C(C)C(OC)C(C)CCC(=O)C(C)C(C/C=C/N(C)C=O)OC)OC(=O)C=CC2OC2(C)CC(OC)C(OC)C2=CC(=O)O[C@@H](C(C)C(OC)CC(OC)/C=C/C(C)C(O)C1)[C@H]2O (some centres undefined): 0.016
- O=c1[nH]cc(-c2c[nH]c3ccccc23)nc1-c1c[nH]c2ccccc12: 25

----------
- Tested on: HOP-62 NSCLC
- PROCEDURE DETAILS: NCI tumour cell line growth inhibition, 48 h
Where a SMILES comes first, the peptide text is derived from it. The star is where a group is joined. Boc = CC(C)(C)OC(=O)*
Reported TGI values for a set of compounds
RESULT TYPE: TGI

* COc1cc2c(c(OC)c1)/C(=C/Sc1ccccc1)C(=O)N(C(C)(C)C)C2 | 83.8 µM
* CCc1ccc2c(c1)N(CCO)C1=C(C(=O)OC1)C2c1cccc(Br)c1 (stereo not drawn) | 14.5 µM
* O=S1(=O)OCCOS(=O)(=O)C1(F)Br | > 100 µM
* CCc1nn(CN2CCOCC2)c(=S)n1/N=C/c1ccc(-c2ccc(Cl)cc2)o1 | > 100 µM
* CC(C)(C)OC(=O)NC(Cc1ccc(O)cc1)C(=O)N1CCCC1C(=O)O (stereo not drawn) (Boc-Tyr-Pro-OH; configuration not given here) | > 100 µM
* CC(=O)Nc1ccc(SC#N)c2c(NC(C)=O)cccc12 | > 100 µM
* C=CCN1C(=O)/C(=C/c2cccs2)N=C1SC/C=C/C | > 100 µM
* Nc1ccn(C2C=C(CO)C(O)C2O)c(=O)c1 (stereo not drawn) | > 625 µM
* COc1cccc(OC)c1C(=O)OCc1ccccc1 | > 100 µM
* CN(C)CCCN1c2ccccc2Sc2ccc3ccccc3c21 | 24.8 µM
* NC(N)=NCCCC(NC(=O)c1cccc2c(=O)c3ccccc3[nH]c12)C(=O)O (stereo not drawn) | > 100 µM
* OCCNCCN1CCN(CCCN2c3ccccc3Sc3ccc(C(F)(F)F)cc32)CC1 | 38.1 µM
* CN(C)c1ccc(C(Cc2ccccc2)C2NC(=S)NC2=O)cc1 (stereo not drawn) | > 100 µM
* CC(=O)Oc1cc2c(cc1OC(C)=O)OCC(c1ccccc1)C2 (stereo not drawn) | 54.3 µM
* O=C(O)c1cc2c(ncc3c(=O)n(-c4ccccc4)[nH]c32)s1 | > 100 µM
* O=C(NN1C(=O)CSC12CCCCC2)c1[nH]c2ccc(Br)cc2c1-c1ccccc1 | 51.4 µM
* Cc1cc(S(=O)(=O)Nc2nc3ccccc3nc2-c2cccc([N+](=O)[O-])c2)c(S)cc1Cl | 39.2 µM
* Cc1ccc(/C=C/C(=O)C(C)(C)CN2CCCCC2)cc1 | 29.5 µM
* C[C@]12CC[C@@H]3c4cc(OCC(F)(F)F)c(O)cc4CC[C@H]3[C@@H]1CC[C@@H]2O | 26.7 µM
* O=C1OC(Cc2ccccc2)(N2CCCC2=O)C1c1ccccc1 (stereo not drawn) | > 100 µM
* O=C(CSc1nnc(Cc2ccccc2)o1)Nc1ccccc1 | > 100 µM
* COc1cc2c(cc1C1COc3cc4occc4cc3C1=O)OCO2 (stereo not drawn) | > 100 µM
* O=C1NC(=O)C(N2C(=O)c3ccccc3C2=O)CC1O (stereo not drawn) | > 100 µM

----------
- Tested on: OVCAR-8 ovarian
- PROCEDURE DETAILS: NCI tumour cell line growth inhibition, 48 h
# TGI per entry
RESULT TYPE: TGI (µM)

* Clc1ccc(Nc2nc3ccccc3nc2-c2cccs2)cc1Cl | 68.6
* COc1cc2nc(N3CCCC3)nc(NCCc3ccccc3)c2cc1OC | 6.05
* CO[C@H]1CC(O[C@@H]2/C(C)=C/C[C@@H]3C[C@@H](C[C@]4(C=C[C@H](C)[C@@H](C5CCCCC5)O4)O3)OC(=O)[C@@H]3C=C(C)[C@@H](O)[C@H]4OC/C(=C\C=C\[C@@H]2C)[C@]43O)O[C@@H](C)C1O[C@H]1C[C@H](OC)[C@@H](O)[C@H](C)O1 (stereo partly specified) | 5.29
* Cc1ccc(/C=C/C(=O)C(C)(C)CN2CCCCC2)cc1 | 10.3
* O=C(NN1C(=O)CSC12CCCCC2)c1[nH]c2ccc(Br)cc2c1-c1ccccc1 | 30.1
* O=C1c2ccccc2-c2cc([N+](=O)[O-])c([N+](=O)[O-])cc21 | 3.57
* O=C(NC1=C(Cl)C(=O)c2ccccc2C1=O)c1ccc(F)cc1 | 19.3
* CN[C@@H](C)C(=O)N[C@H](C(=O)N1CCC[C@H]1C(=O)Nc1sc(-c2ncco2)nc1-c1ccccc1)C1CCCCC1 | 42.7
* Cc1[nH]c2ccccc2c1C(=O)CC1(O)C(=O)Nc2c(Cl)cc(Cl)cc21 (stereo unspecified) | 70.4
* O=C1C(Cl)=C(Nc2ccc(S(=O)(=O)O)cc2)C(=O)c2ccccc21 | 90.6
* CN(C)CCCN1c2ccccc2Sc2ccc3ccccc3c21 | 27.1
* OCCNCCN1CCN(CCCN2c3ccccc3Sc3ccc(C(F)(F)F)cc32)CC1 | 31.9
* C[C@]12CC[C@@H]3c4cc(OCC(F)(F)F)c(O)cc4CC[C@H]3[C@@H]1CC[C@@H]2O | 34.3

----------
- Test system: A549 NSCLC
- PROCEDURE DETAILS: NCI tumour cell line growth inhibition, 48 h
Recorded TGI, one value per entry.
RESULT TYPE: TGI (µM)

- CCCCn1c(N)c(-c2nc3ccccc3o2)sc1=S: 29.8
- CCOC(=O)C1=NOC2(C=C(Br)C(=O)C(Br)=C2)C1: 59
- O=C1OCC2=C1C(c1ccc(Cl)c(Cl)c1)c1cc3c(cc1N2CCO)OCCO3 (centres undefined): 11.8
- COc1cc2c(c(OC)c1OC)-c1ccc(SC)c(=O)cc1C(NC(=O)c1ccccc1)CC2 (centres undefined): 65.9

----------
The compounds listed here are annotated with their TGI.
- System: ACHN renal
- PROCEDURE DETAILS: NCI tumour cell line growth inhibition, 48 h
RESULT TYPE: TGI

• CC1(O)C=CC(=O)C=C1 = > 62.8 µM
• COC(=O)[C@H](CCSC)NC(=O)N[C@H](C)c1ccccc1 = > 100 µM
• O=c1ssc(=Nc2ccccc2)n1-c1ccccc1 = 31.1 µM
• O=C1C(=C([O-])c2ccccc2)C(=O)c2ccccc21.O=C1C(=C([O-])c2ccccc2)C(=O)c2ccccc21.[Fe+2] = > 100 µM
• O=[N+]([O-])c1ccc(C=Cc2ccccc2)cc1.[C-]#[O+].[C-]#[O+].[C-]#[O+].[Cr] = > 100 µM
• N#CC1C(=O)NC23CCCCC2C1c1ccccc1O3 (stereo unspecified) = > 100 µM
• CCCP1(=O)C=C(C)C(=C(Cl)Cl)C(C)=C1 (stereo unspecified) = > 100 µM
• CCOC(=O)/C(C=Nc1c(C)n(C)n(-c2ccccc2)c1=O)=C(/C)O = > 100 µM
• O=c1nc(NC2CCCCO2)ccn1CCO (stereo unspecified) = > 100 µM
• Cc1ccc(C2OC(COCc3ccc(Cl)cc3)C(OCc3ccc(Cl)cc3)C2O)cc1 (stereo unspecified) = 41.8 µM
• COc1cc(N2C(=O)[C@H](O)C2c2ccc(SC)cc2)cc(OC)c1OC (stereo partly specified) = 60.5 µM
